# Assayed Target: T1, human IL-33 (R&D Systems, #3625-IL-010/CF) (human, UniProt O95760 112-270)
# T1 sequence (looked up): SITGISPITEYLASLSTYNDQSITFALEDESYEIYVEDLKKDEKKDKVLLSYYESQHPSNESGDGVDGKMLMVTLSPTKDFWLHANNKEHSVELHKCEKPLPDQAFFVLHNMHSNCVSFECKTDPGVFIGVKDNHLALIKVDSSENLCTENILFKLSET
# Experiment: cell-based or functional assay
Measurement Label: IC50, IL-33-induced phospho-p38 in primary human basophils, 500 pM hIL-33 (M)
One number for each entry, in M.

* H4H9640P (antibody, IgG4, V domains shown, also called RG6) VH: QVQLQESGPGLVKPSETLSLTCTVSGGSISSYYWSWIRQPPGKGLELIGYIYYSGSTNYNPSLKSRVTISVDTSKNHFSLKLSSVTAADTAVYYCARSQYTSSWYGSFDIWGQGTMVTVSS VL: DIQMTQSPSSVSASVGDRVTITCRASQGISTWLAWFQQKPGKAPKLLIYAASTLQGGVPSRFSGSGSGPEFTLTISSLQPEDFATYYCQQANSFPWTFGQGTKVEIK | 3.9e-13
* H4H9659P (antibody, IgG4, V domains shown, also called RG7) VH: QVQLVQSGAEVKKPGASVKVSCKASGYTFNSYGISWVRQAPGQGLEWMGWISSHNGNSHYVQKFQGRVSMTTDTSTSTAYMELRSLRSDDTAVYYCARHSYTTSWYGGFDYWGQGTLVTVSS VL: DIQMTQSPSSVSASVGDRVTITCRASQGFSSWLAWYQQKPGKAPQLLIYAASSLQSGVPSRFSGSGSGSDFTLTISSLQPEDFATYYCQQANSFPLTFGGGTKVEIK | 6.7e-13
* H1M9568N (antibody, IgG1, V domains shown, also called RG3) VH: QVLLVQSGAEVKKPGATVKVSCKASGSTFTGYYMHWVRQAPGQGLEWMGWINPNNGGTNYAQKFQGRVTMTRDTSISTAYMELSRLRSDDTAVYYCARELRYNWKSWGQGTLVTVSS VL: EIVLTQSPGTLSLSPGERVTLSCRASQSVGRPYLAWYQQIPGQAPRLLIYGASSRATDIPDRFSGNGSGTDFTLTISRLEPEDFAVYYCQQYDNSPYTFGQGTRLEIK | 4e-13

Looking up H4H9629P (antibody, IgG4, V domains shown, also called RG4) VH: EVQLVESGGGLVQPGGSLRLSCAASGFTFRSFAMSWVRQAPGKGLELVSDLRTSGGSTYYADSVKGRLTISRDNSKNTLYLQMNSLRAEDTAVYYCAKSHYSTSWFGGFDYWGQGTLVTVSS VL: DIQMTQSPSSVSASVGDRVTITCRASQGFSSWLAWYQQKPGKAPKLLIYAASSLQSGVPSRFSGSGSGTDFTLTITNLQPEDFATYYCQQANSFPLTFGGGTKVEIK , I see its IC50, IL-33-induced phospho-p38 in primary human basophils, 500 pM hIL-33 listed as 3.6e-13

These data points were gathered from patent US20190092852A1.
